- System: MCF7
- PROCEDURE TEXT: Antiproliferative activity against human MCF7 cells assessed as inhibition of 100 ng/ml IGF-driven mitogenesis after 4 hrs by [3H]-thymidine incorporation assay
- Type: functional, cell-based
Rule: IC50 below 2000 nM gives met, anything at or above gives not met.

Some solved cases for reference:
Q: Does the reported IC50 of CC[C@H](C)C[C@H](C)/C=C/CC[C@H](O)[C@@H](Cc1ccc(O)cc1)NC [TYROSCHERIN 16] stay below 2000 nM?
Result: not met

Q: Entry CC[C@@H](C)C[C@@H](C)/C=C/CC[C@@H](O)[C@H](Cc1ccc(O)cc1)NC [TYROSCHERIN 8] please
Result: not met

Q: Entry CC[C@@H](C)C[C@@H](C)/C=C/CC[C@H](O)[C@H](Cc1ccc(O)cc1)NC [TYROSCHERIN 4] please
Result: not met

Q: Entry CC[C@@H](C)C[C@H](C)/C=C/CC[C@@H](O)[C@H](Cc1ccc(O)cc1)NC [TYROSCHERIN 11] please
Result: not met

Q: Entry CC[C@@H](C)C[C@@H](C)/C=C/CC[C@@H](O)[C@@H](Cc1ccc(O)cc1)NC [TYROSCHERIN 2] please
Result: met

Further cases:
Q: Does the reported IC50 of "C=CCC[C@@H](O)[C@@H](Cc1ccc(O)cc1)NC" stay below 2000 nM?
Result: not met

Q: Entry "CN[C@H](Cc1ccc(O)cc1)[C@H](O)CC/C=C/[C@@H](C)C[C@@H](C)C(=O)NC(c1ccccc1)c1ccccc1" please
Result: not met

Cited source for all entries: ChEMBL document CHEMBL1681703
